Reported pKi values are given for each entry in this list.
molecular target: human V1a receptors (Homo sapiens, UniProt P37288)
Sequence (P37288 whole entry): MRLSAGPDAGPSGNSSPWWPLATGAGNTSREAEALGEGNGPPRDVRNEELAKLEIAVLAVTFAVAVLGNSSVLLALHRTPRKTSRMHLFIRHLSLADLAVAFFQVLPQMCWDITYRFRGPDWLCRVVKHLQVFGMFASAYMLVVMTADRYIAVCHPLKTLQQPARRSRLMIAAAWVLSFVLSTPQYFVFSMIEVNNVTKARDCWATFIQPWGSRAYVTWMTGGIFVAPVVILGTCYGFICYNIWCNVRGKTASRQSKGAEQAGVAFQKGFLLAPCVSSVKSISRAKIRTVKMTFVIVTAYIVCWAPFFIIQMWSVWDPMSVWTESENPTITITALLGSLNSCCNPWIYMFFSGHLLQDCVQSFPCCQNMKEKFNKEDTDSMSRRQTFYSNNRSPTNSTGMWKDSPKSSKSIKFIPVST
pKi: −log10 of the molar value. Where a SMILES comes first, the peptide text is derived from it. Bridges are numbered along the chain shown (N, C = ends). [ ]: non-standard residue; d: D form. The star is where a group is joined. X1 = O=C(O)CN1CCN(CC(=O)O)CCN(Cc2ccc(CC(=O)*)cc2)CC1; Mpa = O=C(O)CCS
Quantity name: pKi

- CC[C@H](C)[C@H](NC(=O)[C@H](Cc1ccc(O)cc1)NC(=O)CCS)C(=O)N[C@@H](CCC(N)=O)C(=O)N[C@@H](CC(N)=O)C(=O)N[C@@H](CS)C(=O)N1CCC[C@H]1C(=O)N[C@@H](CCCCN)C(=O)NCC(N)=O [dLVToc] ([Mpa]YIQNCPKG-NH2): 7.51
- CC[C@H](C)[C@@H]1NC(=O)[C@H](Cc2ccc(O)cc2)NC(=O)CCSSC[C@@H](C(=O)N2CCC[C@H]2C(=O)N[C@@H](CCCCNC(=O)Cc2ccc(CN3CCN(CC(=O)O)CCN(CC(=O)O)CC3)cc2)C(=O)NCC(N)=O)NC(=O)[C@H](CC(N)=O)NC(=O)[C@H](CCC(N)=O)NC1=O [AlF-NODA-dLVTc] ([Mpa]YIQNCPK(X1)G-NH2; disulfide 1-6): 6.80
- CC[C@H](C)[C@@H]1NC(=O)[C@H](Cc2ccc(O)cc2)NC(=O)CCSSC[C@@H](C(=O)N2CCC[C@H]2C(=O)N[C@@H](CC(C)C)C(=O)NCC(N)=O)NC(=O)[C@H](CC(N)=O)NC(=O)[C@H](CCC(N)=O)NC1=O: 6.41
- CC[C@H](C)[C@H](NC(=O)[C@H](Cc1ccc(O)cc1)NC(=O)CCS)C(=O)N[C@@H](CCC(N)=O)C(=O)N[C@@H](CC(N)=O)C(=O)N[C@@H](CS)C(=O)N1CCC[C@H]1C(=O)N[C@@H](CC(C)C)C(=O)NCC(N)=O: 6.44
- CC[C@H](C)[C@@H]1NC(=O)[C@H](Cc2ccc(O)cc2)NC(=O)CCSSC[C@@H](C(=O)N2CCC[C@H]2C(=O)N[C@@H](CCCCN)C(=O)NCC(N)=O)NC(=O)[C@H](CC(N)=O)NC(=O)[C@H](CCC(N)=O)NC1=O [dLVTc, reference compound] ([Mpa]YIQNCPKG-NH2; disulfide 1-6): 7.62

###

Target protein (sequence): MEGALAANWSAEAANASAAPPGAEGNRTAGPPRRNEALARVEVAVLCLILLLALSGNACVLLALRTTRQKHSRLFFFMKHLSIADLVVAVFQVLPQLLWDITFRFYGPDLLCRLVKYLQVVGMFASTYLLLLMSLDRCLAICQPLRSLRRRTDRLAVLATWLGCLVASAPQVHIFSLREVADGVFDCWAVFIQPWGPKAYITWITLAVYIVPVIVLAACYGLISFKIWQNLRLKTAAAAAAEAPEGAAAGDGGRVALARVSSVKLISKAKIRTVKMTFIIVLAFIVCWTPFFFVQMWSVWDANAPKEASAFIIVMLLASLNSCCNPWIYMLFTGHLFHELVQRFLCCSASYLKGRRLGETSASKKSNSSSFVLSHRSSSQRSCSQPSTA
Where a SMILES comes first, the peptide text is derived from it. Bridges are numbered along the chain shown (N, C = ends). [ ]: non-standard residue; d: D form. The star is where a group is joined. X1 = O=C(O)CN1CCN(CC(=O)O)CCN(Cc2ccc(CC(=O)*)cc2)CC1; Mpa = O=C(O)CCS
Quantity name: Ki (nM)

- CC[C@H](C)[C@H](NC(=O)[C@H](Cc1ccc(O)cc1)NC(=O)CCS)C(=O)N[C@@H](CCC(N)=O)C(=O)N[C@@H](CC(N)=O)C(=O)N[C@@H](CS)C(=O)N1CCC[C@H]1C(=O)N[C@@H](CCCCN)C(=O)NCC(N)=O [dLVToc] ([Mpa]YIQNCPKG-NH2): 6.3
- CC[C@H](C)[C@@H]1NC(=O)[C@H](Cc2ccc(O)cc2)NC(=O)CCSSC[C@@H](C(=O)N2CCC[C@H]2C(=O)N[C@@H](CCCCNC(=O)Cc2ccc(CN3CCN(CC(=O)O)CCN(CC(=O)O)CC3)cc2)C(=O)NCC(N)=O)NC(=O)[C@H](CC(N)=O)NC(=O)[C@H](CCC(N)=O)NC1=O [AlF-NODA-dLVTc] ([Mpa]YIQNCPK(X1)G-NH2; disulfide 1-6): 2.6
- CC[C@H](C)[C@@H]1NC(=O)[C@H](Cc2ccc(O)cc2)NC(=O)CCSSC[C@@H](C(=O)N2CCC[C@H]2C(=O)N[C@@H](CCCCN)C(=O)NCC(N)=O)NC(=O)[C@H](CC(N)=O)NC(=O)[C@H](CCC(N)=O)NC1=O [dLVTc, reference compound] ([Mpa]YIQNCPKG-NH2; disulfide 1-6): 3.4
- CC[C@H](C)[C@@H]1NC(=O)[C@H](Cc2ccc(O)cc2)NC(=O)CCSSC[C@@H](C(=O)N2CCC[C@H]2C(=O)N[C@@H](CC(C)C)C(=O)NCC(N)=O)NC(=O)[C@H](CC(N)=O)NC(=O)[C@H](CCC(N)=O)NC1=O [dOTc]: 1.6

###

Experiment: in vivo
Details: Wistar, rat, iv, 0.08 mg/kg
Experimental: To investigate the plausibility of i.n. administration for OT-like therapies, given the similar structure and hydrophilic profile between AlF-NODA-dLVT and OT, in vivo tissue distribution of [^18F]AlF-NODA-dLVT was determined following i.n. or i.v. administration. […]. […] Distribution was determined through gamma counting of radioactivity in isolated tissue. […]
Where a SMILES comes first, the peptide text is derived from it. Bridges are numbered along the chain shown (N, C = ends). [ ]: non-standard residue; d: D form. The star is where a group is joined. X1 = O=C(O)CN1CCN(CC(=O)O)CCN(Cc2ccc(CC(=O)*)cc2)CC1; Mpa = O=C(O)CCS
Quantity name: half-life (min)

* CC[C@H](C)[C@@H]1NC(=O)[C@H](Cc2ccc(O)cc2)NC(=O)CCSSC[C@@H](C(=O)N2CCC[C@H]2C(=O)N[C@@H](CCCCNC(=O)Cc2ccc(CN3CCN(CC(=O)O)CCN(CC(=O)O)CC3)cc2)C(=O)NCC(N)=O)NC(=O)[C@H](CC(N)=O)NC(=O)[C@H](CCC(N)=O)NC1=O [AlF-NODA-dLVTc] ([Mpa]YIQNCPK(X1)G-NH2; disulfide 1-6) | 14

###

assay: in vivo; conditions: female, Wistar, rat, in vivo, inhaled or intranasal, total radioactivity, uptake in brain parenchyma
Where a SMILES comes first, the peptide text is derived from it. Bridges are numbered along the chain shown (N, C = ends). [ ]: non-standard residue; d: D form. The star is where a group is joined. X1 = O=C(O)CN1CCN(CC(=O)O)CCN(Cc2ccc(CC(=O)*)cc2)CC1; Mpa = O=C(O)CCS
Quantity name: tissue uptake at 0.5 h (%ID/g)

- CC[C@H](C)[C@@H]1NC(=O)[C@H](Cc2ccc(O)cc2)NC(=O)CCSSC[C@@H](C(=O)N2CCC[C@H]2C(=O)N[C@@H](CCCCNC(=O)Cc2ccc(CN3CCN(CC(=O)O)CCN(CC(=O)O)CC3)cc2)C(=O)NCC(N)=O)NC(=O)[C@H](CC(N)=O)NC(=O)[C@H](CCC(N)=O)NC1=O [[^18F]AlF-NODA-dLVT] ([Mpa]YIQNCPK(X1)G-NH2; disulfide 1-6): 0.11

Where these numbers come from: paper PMC6049614
